- System Under Test: UniProt P28223
- Sequence (P28223 whole entry): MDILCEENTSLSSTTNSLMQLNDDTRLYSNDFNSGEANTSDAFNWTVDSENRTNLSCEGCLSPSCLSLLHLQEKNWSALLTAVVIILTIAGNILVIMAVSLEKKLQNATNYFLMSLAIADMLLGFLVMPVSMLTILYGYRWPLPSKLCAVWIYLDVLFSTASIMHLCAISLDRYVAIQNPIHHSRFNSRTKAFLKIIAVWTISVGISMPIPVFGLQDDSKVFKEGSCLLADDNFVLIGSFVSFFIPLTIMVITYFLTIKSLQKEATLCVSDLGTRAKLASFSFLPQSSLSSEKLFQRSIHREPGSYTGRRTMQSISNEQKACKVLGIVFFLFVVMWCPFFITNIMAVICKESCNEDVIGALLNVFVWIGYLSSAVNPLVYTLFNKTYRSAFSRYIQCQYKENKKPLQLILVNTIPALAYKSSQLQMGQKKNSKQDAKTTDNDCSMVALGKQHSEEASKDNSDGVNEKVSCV
- Assay Comment: Agonist activity at human 5-HT2A receptor expressed in cells assessed as increase in calcium mobilization by Calcium-6 dye based FLIPR assay
- Format: functional, cell-based
pEC50: −log10 of the molar value.

- Input Smiles: "[2H]C([2H])(c1c[nH]c2cccc(OC)c12)[C@H]1CCCN1C([2H])([2H])[2H]"
  System Under Test: "UniProt P28223"
  pEC50: "> 6.00"
- Input Smiles: "CN1CCC[C@@H]1Cc1c[nH]c2cccc(O)c12"
  System Under Test: "UniProt P28223"
  pEC50: "> 6.00"
- Input Smiles: "[2H]C([2H])([2H])N1CCC[C@@H]1Cc1c[nH]c2cccc(O)c12"
  System Under Test: "UniProt P28223"
  pEC50: "> 6.00"
- Input Smiles: "[2H]C([2H])([2H])N1CCC[C@@H]1Cc1c[nH]c2cccc(F)c12"
  System Under Test: "UniProt P28223"
  pEC50: "> 6.00"
- Input Smiles: "[2H]C([2H])(c1c[nH]c2cccc(F)c12)[C@H]1CCCN1C([2H])([2H])[2H]"
  System Under Test: "UniProt P28223"
  pEC50: "> 6.00"
- Input Smiles: "[2H]C([2H])([2H])N1CCC[C@H]1Cc1c[nH]c2cccc(OCc3ccccc3)c12"
  System Under Test: "UniProt P28223"
  pEC50: "> 5.00"
- Input Smiles: "[2H]C([2H])(c1c[nH]c2cccc(O)c12)[C@@H]1CCCN1"
  System Under Test: "UniProt P28223"
  pEC50: "> 6.00"
- Input Smiles: "[2H]C([2H])(c1c[nH]c2cccc(O)c12)[C@H]1CCCN1C([2H])([2H])[2H]"
  System Under Test: "UniProt P28223"
  pEC50: "> 6.00"
- Input Smiles: "Oc1cccc2[nH]cc(C[C@H]3CCCN3)c12"
  System Under Test: "UniProt P28223"
  pEC50: "> 6.00"
- Input Smiles: "[2H]C([2H])(c1c[nH]c2cccc(F)c12)[C@H]1CCCN1"
  System Under Test: "UniProt P28223"
  pEC50: 6.00
